Assay Method Text: MTT cytotoxicity assay
Assay type: cell-based
Condition: human, SH-SY5Y neuroblastoma cells; very low density 1 × 10^3/96-well (Table 3)
Measured Metric: IC50 at 48 h (µM)
Reply with just the number (in µM).

Qu. Fill in: IC50 at 48 h of CCC(C)C(O)C(C)(O)C=CC1=CC2=C(Cl)C(=O)C(C)(O)C(OC(C)=O)C2CO1 (stereo not drawn) [Compound 1, 8a-epi-hypocrellone A] is ___
Ans. 26.8
